Provide the reported nuclear beta-catenin stimulation of each item.
- assay-protocol: stimulators of nuclear beta-catenin in C2C12, primary screen, imaging, WNT3A-conditioned medium, mouse C2C12, NPC library (AID 1117326); further: reference of the scale not given here
- run-parameters: at 10 µM, stronger effect = higher value
Give bare numbers, in %.

For every record below, what is its nuclear beta-catenin stimulation?
1. COCCCN1CCC(NC(=O)c2cc(Cl)c(N)c3c2OCC3)CC1
2. CN1C(=O)CC(c2ccccc2)C1=O (stereo unspecified)

0.7
0.4

For each of the items listed, what is its nuclear beta-catenin stimulation?
1. COCCOCC(OC)OC
2. COc1ccc(C=CC(=O)Nc2ccccc2C(=O)O)cc1OC
3. CCOC(=O)[C@H](CCc1ccccc1)N[C@H]1CS[C@H](c2cccs2)CN(CC(=O)O)C1=O
4. CN(C(=O)CN(CCO)CC(=O)N(C)C(C)(C)Cc1ccccc1)C(C)(C)Cc1ccccc1
5. CCN(CC)CCc1nc(-c2ccccc2)no1
6. CCCCC(CC)COC(=O)CC(C(=O)OCC(CC)CCCC)S(=O)(=O)O (stereo unspecified)
7. CCCCCCCCCCCCCCCC(=O)NCCO
8. Cc1ccc(-n2nc(C(C)(C)C)cc2NC(=O)Nc2ccc(OCCN3CCOCC3)c3ccccc23)cc1

1. 1.2
2. -1.3
3. 0.9
4. 9.4
5. 2
6. 2.7
7. 2.2
8. 13.4

Reported nuclear beta-catenin stimulation for `CC(C)NC[C@@H](O)COc1ccc(CC(N)=O)cc1` was 0.1

Provenance of the data: PubChem BioAssay
